Origin of the recorded values: the Immune Epitope Database (IEDB)

Molecular target: HLA-B*15:01
Test: IEDB peptide-MHC binding, purified MHC/direct/fluorescence; filed as Kd, often an IC50 or EC50 that approximates it; bounds were set here for any values at or beyond the usual limits of such assays
Details: source organism: Yersinia pestis
Property: Kd (nM)
Write the number in nM without appending the unit.

Request the reported Kd associated with QQSEARRML
109

----------
Molecular target: HLA-A*30:01
Test: IEDB peptide-MHC binding, purified MHC/competitive/fluorescence; filed as Kd, often an IC50 or EC50 that approximates it; bounds were set here for any values at or beyond the usual limits of such assays
Settings: source organism: Vibrio vulnificus YJ016
pKd: −log10 of the molar value.
Property: pKd

Request the reported pKd associated with EPADHLAIM
≤ 4.70
